system: U251 CNS; test: NCI-60 one-dose screen, 48 h; settings: 10 µM unless noted
About 83,000 compounds went through this panel and 20% of them were active in at least one assay; those are over-represented in the sample as a whole. Activity calls are given as the source filed them. The calls were made as follows: active = growth percent below 10; inactive = the rest.
Lab note: assign the record to one of true (active), false (inactive)

Record excerpt, results attached:
compound: COc1c(B(O)O)cc(C)cc1-c1nc2ccc3[nH]ncc3c2c2c1CCCC2
labelValue: false
//
compound: O=c1c2cc(F)ccc2sc2c(N3CCNCC3)nc3ccccc3c12
labelValue: true
//
compound: CC(=O)CC(c1ccccc1)c1c(C)[nH]c2ccccc12 (stereo not given)
labelValue: false
//
compound: O=C1c2cccc3cccc(c23)C(=O)N1Nc1nc(N2CCOCC2)nc(N2CCN(c3ccccc3)CC2)n1
labelValue: false
//
compound: C=C1C(=O)O[C@H]2[C@H]1CC/C(COC(=O)C(C)c1ccc(CC(C)C)cc1)=C\CC[C@@]1(C)O[C@@H]21 (stereo not given in full)
labelValue: true

// return assay outcome for CCOC(=O)c1cn2ncnc(Oc3ccc(NC(=O)NCCN4CCOCC4)c(Cl)c3)c2c1C
false

// return assay outcome for COc1cc(/C=C/C(=O)/C=C/c2cc(OC)c3c(c2OC)OCO3)c(OC)c2c1OCO2
false

// return assay outcome for Cc1c(C(=O)/C=C/Nc2c(Cl)cc(S(N)(=O)=O)cc2Cl)sc2nc3ccccc3n12
false

// return assay outcome for COC1=C(C)C(=O)c2c(c(CCCl)c3n2CCC3OC(C)=O)C1=O (stereo not given)
true

// return assay outcome for N#Cc1cccc(NC(=O)c2cc(-c3ccc(F)cc3F)ccc2O)c1
false

Reference for the values: PubChem BioAssay (NCI)
